- measured_on: P2Y purinoceptor 6 (Homo sapiens, UniProt Q15077)
- Sequence (Q15077 whole entry): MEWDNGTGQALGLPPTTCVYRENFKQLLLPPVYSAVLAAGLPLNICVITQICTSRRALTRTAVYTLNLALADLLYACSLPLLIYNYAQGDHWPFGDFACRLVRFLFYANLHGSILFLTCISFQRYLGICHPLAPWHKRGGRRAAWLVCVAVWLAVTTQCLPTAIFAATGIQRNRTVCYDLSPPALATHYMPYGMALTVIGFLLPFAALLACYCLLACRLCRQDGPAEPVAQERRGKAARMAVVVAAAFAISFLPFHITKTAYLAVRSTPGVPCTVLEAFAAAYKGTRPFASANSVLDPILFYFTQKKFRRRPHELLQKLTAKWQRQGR
- protocol: Agonist activity at human recombinant P2Y6 receptor expressed in human 1321N1 cells assessed as [3H]inositol phosphate production up to 10 uM by scintillation proximity assay
- Format: functional, cell-based
test_readout: Activity

[
  {
    "item_smiles": "CCN(CC)CC.O=c1ccn([C@@H]2O[C@H](COP(=O)(O)OP(=O)(O)OP(=O)(O)O[C@H]3O[C@H](CO)[C@@H](O)[C@H](O)[C@H]3O)[C@@H](O)[C@H]2O)c(=O)[nH]1",
    "result": "< 50%"
  },
  {
    "item_smiles": "CCN(CC)CC.O=c1ccn([C@@H]2O[C@H](COP(=O)(O)OP(=O)(O)OP(=O)(O)Oc3ccccc3)[C@@H](O)[C@H]2O)c(=O)[nH]1",
    "result": "< 50%"
  },
  {
    "item_smiles": "O=C(Cn1c(=O)ccn([C@@H]2O[C@H](COP(=O)(O)OP(=O)(O)OP(=O)(O)O[C@H]3O[C@H](CO)[C@@H](O)[C@H](O)[C@H]3O)[C@@H](O)[C@H]2O)c1=O)c1ccccc1",
    "result": "< 50%"
  },
  {
    "item_smiles": "CCN(CC)CC.O=c1ccn([C@@H]2O[C@H](COP(=O)(O)CP(=O)(O)OP(=O)(O)O[C@H]3O[C@H](CO)[C@@H](O)[C@H](O)[C@H]3O)[C@@H](O)[C@H]2O)c(=O)[nH]1",
    "result": "< 50%"
  }
]
